# ASSAY_NAME: qHTS assay for small molecule activators of the p53 signaling pathway (AID 651743); also: % of control where 0% means no effect
# EXPERIMENTAL_SETUP: HCT-116 p53RE-bla, beta-lactamase FRET ratio, 16 h; stronger effect = higher value
Inconclusive results are not listed.
Could you please report measured activation for the items listed next?
One number for each entry, in %.

>>> measured("COCC(=O)N(c1c(C)cccc1C)C(C)C(=O)OC (centres undefined)")
-5.17
>>> measured("CNC(=O)Oc1cccc2ccccc12")
1.34

Your task in this section: give activation for each listed record.
1. COP(=O)(OC)C(O)C(Cl)(Cl)Cl (centres undefined)
2. COP(=S)(OC)Oc1ccc(Sc2ccc(OP(=S)(OC)OC)cc2)cc1

Given back:
[6.58, 9.51]

* * *

# ASSAY_NAME: qHTS for Inhibitors of the Functional Ribonucleoprotein Complex (vRNP) of Lassa (LASV) Arenavirus: LASV Primary Screen - GLuc reporter signal (AID 1347082); also: % is scaled to controls: 0 for no effect and ±100 for the full control effect; nearly all actives have a fitted effect of over 60% in size
# EXPERIMENTAL_SETUP: LASV minigenome vRNP, Gaussia luciferase reporter; series mostly up to 57.5 µM
Records with an inconclusive call do not appear. Calls of active or inactive are those of the source. Calls come from the whole dose curve; tested in HEK293 reporter line.
PROPERTY_NAME: outcome

>>> measured("CC(C)(C)NCC(O)COc1cccc2c1CCC(=O)N2 (configuration not stated)")
"inactive"
>>> measured("Cc1nnc2n1-c1sc(CCC(=O)N3CCOCC3)cc1C(c1ccccc1Cl)=NC2")
"inactive"
>>> measured("COc1ccc2c(c1)c(CC(=O)O)c(C)n2C(=O)c1ccc(Cl)cc1")
"inactive"
>>> measured("CCCCc1ccc2nc(NC(=O)OC)[nH]c2c1")
"inactive"
>>> measured("CCO[C@H]1O[C@@H]2OC3(C)CC[C@H]4[C@H](C)CC[C@@H]([C@H]1C)[C@@]24OO3")
"inactive"

Your task in this section: give outcome for each listed record.
1. O=C(c1cc(O)c(O)c(O)c1)c1ccc(O)c(O)c1O
2. CCN(CC)CCN
3. Cc1c(-c2ccccc2)oc2c(C(=O)OCCN3CCCCC3)cccc2c1=O

Given back:
1. inactive
2. inactive
3. inactive

* * *

# Test system: KB-3-1
# ASSAY_NAME: Cytotoxic Profiling of Annotated Libraries Using Quantitative High-Throughput Screening (AID 1296008); also: % is scaled to controls: 0 for no effect and ±100 for the full control effect; nearly all actives have a fitted effect of over 60% in size
# EXPERIMENTAL_SETUP: Five cell lines viability, CellTiter-Glo ATP luminescence, 48-72 h; stronger effect = lower value
Results filed as inconclusive are left out.
PROPERTY_NAME: max response (%)
Numbers only, in %.

Below: 5 compounds and their reported max response.
>>> measured("NC(=O)OCCCc1ccccc1")
-19.1
>>> measured("O=C(O)Cc1ccccc1")
-2.72
>>> measured("CN(C)C(=O)Oc1cc(OC(=O)N(C)C)cc(C(O)CNC(C)(C)C)c1 (stereo unspecified)")
-2.49
>>> measured("C[C@]12CC[C@H]3[C@@H](CC=C4C[C@@H](O)CC[C@@]43C)[C@@H]1CC[C@@H]2O")
-11.4
>>> measured("CCN(CC)CCOC(=O)C(C)(c1ccccc1)c1ccccc1")
-6.01

Lab note: next compound to report on.
Asked: # get_value(readout='max response', item= CNC(C)Cc1ccccc1OC (stereo unspecified) )
Given back: 2.15

* * *

# System: DIV17
# ASSAY_NAME: qHTS profiling for inhibitors of Plasmodium falciparum proliferation (AID 504749); also: nearly all actives have a fitted effect of over 60% in size
# EXPERIMENTAL_SETUP: P. falciparum in erythrocytes, SYBR Green DNA, 72 h; series mostly up to 28.7 µM
Inconclusive results are not listed. Activity calls are given as the source filed them. Calls follow the shape of the dose curve; as a rule, active = well fitted inhibition curve with a large enough effect; inconclusive = small, poorly fitted or top-dose-only effect; inactive = flat fitted curve, though single readings scatter.
Assign a class; possible classes are 1 (yes) = active, 0 (no) = inactive

>>> label_value("Oc1ccc2[nH]cc(CCCCN3CC=C(c4ccccc4)CC3)c2c1")
"1 (yes)"
>>> label_value("CCC1(CC)C(=O)NC(=O)NC1=O")
"0 (no)"
>>> label_value("CNC(=O)Oc1cccc2ccccc12")
"0 (no)"
>>> label_value("O=C(O)c1nn(Cc2ccc(Cl)cc2Cl)c2ccccc12")
"0 (no)"

Asked: Outcome logged for NC(=O)CN1CCCC1=O in this assay:
Given back: 0 (no)

Asked: Outcome logged for CCOC(=O)NC(O)C(Cl)(Cl)Cl (stereo unspecified) in this assay:
Given back: 0 (no)

Asked: Outcome logged for NC(=O)OCCCc1ccccc1 in this assay:
Given back: 0 (no)

Asked: Outcome logged for c1ccc2nc(N3CCNCC3)ccc2c1 in this assay:
Given back: 0 (no)

Asked: Outcome logged for C=CCOC(Cn1ccnc1)c1ccc(Cl)cc1Cl (stereo unspecified) in this assay:
Given back: 1 (yes)

Asked: Outcome logged for CCN(Cc1ccc(Cl)nc1)/C(=C/[N+](=O)[O-])NC in this assay:
Given back: 0 (no)

Asked: Outcome logged for C[C@H]1C(=O)O[C@@H]2CCN3CC=C(COC(=O)[C@](C)(O)[C@]1(C)O)[C@H]23 in this assay:
Given back: 0 (no)

* * *

# TARGET: Calcium and integrin-binding protein 1 (Homo sapiens)
# ASSAY_NAME: Primary qHTS for Identification of Calcium Integrin Binding Protein 1 (CIB1) Competitor (AID 1508620);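 also: GST tagged CIB1 binding a fluorescein labelled alphaIIb integrin peptide tracer; top concentration of the series differs between compounds; % is scaled to controls: 0 for no effect and ±100 for the full control effect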
# EXPERIMENTAL_SETUP: CIB1-GST / FITC-alphaIIb peptide fluorescence polarization; series mostly up to 114 µM
Records with an inconclusive call do not appear. Activity calls are given as the source filed them. The call rests on the fitted dose curve; in most records, active means well fitted inhibition curve with a large enough effect; inconclusive means small, poorly fitted or top-dose-only effect; inactive means flat fitted curve, though single readings scatter.
Assign a class; possible classes are yes = active, no = inactive

Example entries begin here.
>>> label_value("CCC(OC(C)=O)C(CC(C)NC)(c1ccccc1)c1ccccc1 (stereo not given)")
"no"
>>> label_value("CC(C)(C)OC(=O)c1ncn2c1[C@@H]1CCCN1C(=O)c1c(Br)cccc1-2")
"no"
>>> label_value("COc1ccc2[nH]cc(CCN(C(C)C)C(C)C)c2c1")
"no"
>>> label_value("CCC(=O)OC1(c2ccccc2)CCN(C)CC1")
"no"
>>> label_value("Clc1ccc(C(OCCN2CCCCC2)c2ccccc2)cc1 (stereo not given)")
"no"

Asked: Outcome logged for O=C(O)Cc1ccccc1 in this assay:
Given back: no

Asked: Outcome logged for O=C(CCl)c1ccc(Cl)cc1Cl in this assay:
Given back: no

Asked: Outcome logged for O=c1[nH]c2cc(Cl)ccc2n1C1CCNCC1 in this assay:
Given back: no

* * *

# TARGET: Bile acid receptor (Homo sapiens)
# ASSAY_NAME: qHTS assay for small molecule antagonists of farnesoid X receptor signaling (AID 588526)
# EXPERIMENTAL_SETUP: HEK293T FXR-UAS-bla, beta-lactamase ratio, antagonist mode; series mostly up to 76.7 µM
Records with an inconclusive call do not appear. Activity calls are given as the source filed them. Calls come from the whole dose curve.
Assign a class; possible classes are active, inactive

>>> label_value("C[C@@H]1C[C@@H]([C@H](O)CC2CC(=O)NC(=O)C2)C(=O)[C@@H](C)C1")
"inactive"
>>> label_value("COCC(=O)N(c1c(C)cccc1C)C(C)C(=O)OC (stereo not given)")
"inactive"
>>> label_value("Oc1ccc(Cl)cc1Cc1cc(Cl)ccc1O")
"active"
>>> label_value("O=C(NC(=O)c1c(F)cccc1F)Nc1cc(Cl)c(OC(F)(F)C(F)C(F)(F)F)cc1Cl (stereo not given)")
"inactive"

Now look at this entry.
Asked: Outcome logged for C[C@H]1C(=O)O[C@@H]2CCN3CC=C(COC(=O)[C@](C)(O)[C@]1(C)O)[C@H]23 in this assay:
Given back: inactive

* * *

# ASSAY_NAME: Drug repurposing screens with cells derived from glioblastoma tumor samples (AID 1345199); also: potency is read from the fitted curve at half-maximal effect; nearly all actives have a fitted effect of over 40% in size
# EXPERIMENTAL_SETUP: GBM patient neurospheres viability, ATP luminescence, 48 h; tumour line A
Results filed as inconclusive are left out. Calls of active or inactive are those of the source. Calls follow the shape of the dose curve; as a rule, active = well fitted inhibition curve with a large enough effect; inconclusive = small, poorly fitted or top-dose-only effect; inactive = flat fitted curve, though single readings scatter.
PROPERTY_NAME: Potency

Below: 8 compounds and their reported Potency.
>>> measured("Clc1ccc(CO/N=C(\\Cn2ccnc2)c2ccc(Cl)cc2Cl)c(Cl)c1")
"2.82 µM (active)"
>>> measured("COP(=O)(OC)OC=C(Cl)Cl")
"7.08 µM (active)"
>>> measured("COc1cc(C[C@@H](C)N)c(OC)cc1Br")
"35.5 µM (active)"
>>> measured("C=CC[C@]1(O)CC[C@H]2[C@@H]3CCC4=CC(=O)CCC4=C3C=C[C@@]21C")
"17.8 µM (active)"
>>> measured("CCCN(CCC)CCc1c[nH]c2ccccc12")
"25.1 µM (active)"
>>> measured("CC(Cc1ccccc1)NCc1ccccc1Cl (stereo not given)")
"14.1 µM (active)"
>>> measured("Clc1ccc(C(OCCN2CCCCC2)c2ccccc2)cc1 (stereo not given)")
"3.55 µM (active)"
>>> measured("CC1N=C(N)OC1c1ccccc1 (stereo not given)")
"50.1 µM (active)"

Your task in this section: give Potency for each listed record.
1. C#C[C@]1(O)CC[C@H]2[C@@H]3CCC4=CC(=O)CCC4=C3C=C[C@@]21CC
2. CCCCCCCCCCCC[N+](C)(C)CCOc1ccccc1

Given back:
1: 10 µM (active); 2: 12.6 µM (active)

Your task in this section: give Potency for each listed record.
1. CC[C@H](O)C(C[C@H](C)N(C)C)(c1ccccc1)c1ccccc1
2. CCC(=O)OC1(c2ccccc2)CCN(C)CC1
3. Cc1cccc(Cc2cnc[nH]2)c1C
4. NC1(c2ccccc2)CCCCC1
5. Clc1ccc(CSC(Cn2ccnc2)c2ccc(Cl)cc2Cl)cc1 (stereo not given)
6. CCN(CC)CCOC(=O)C(C)(c1ccccc1)c1ccccc1
7. CC(C)=CCN1CC[C@@]2(C)c3cc(O)ccc3C[C@@H]1[C@@H]2C
8. COc1ccc2[nH]cc(CCN(C(C)C)C(C)C)c2c1

Given back:
1. 44.7 µM (active)
2. 50.1 µM (active)
3. 35.5 µM (active)
4. 63.1 µM (active)
5. 2.24 µM (active)
6. 10 µM (active)
7. 25.1 µM (active)
8. 44.7 µM (active)

Your task in this section: give Potency for each listed record.
1. CC[C@]1(O)CC[C@H]2[C@@H]3CCC4=CCCC[C@@H]4[C@H]3CC[C@@]21C
2. CN1CCc2cc(Cl)c(O)cc2[C@H]2c3ccccc3CC[C@@H]21

Given back:
["10 µM (active)", "11.2 µM (active)"]

Hello, the source for this data is PubChem BioAssay (NCATS), in case you need it.
